Could you please report measured TGI for the items listed next?
System: T-47D breast
assay-overview: NCI tumour cell line growth inhibition, 48 h

Solved cases (4 shown):
1. Cc1ccc(N=Nc2c(C)nn(C(=O)CC(=O)Nc3ccccc3)c2C)cc1C    > 100 µM
2. OC(C1CCC=NN1C(O)(C(F)(F)F)C(F)(F)F)(C(F)(F)F)C(F)(F)F (centres undefined)    > 10 µM
3. COC1C(O)CC(OC2C(C)OC(Oc3cc(O)c4c(O)c5c(cc4c3)C[C@@H]([C@H](OC)C(=O)[C@@H](O)[C@@H](C)O)[C@H](OC3CC(OC4CC(OC6CC(C)(O)C(O)C(C)O6)C(O)C(C)O4)C(O)C(C)O3)C5=O)CC2OC(C)=O)OC1C (some centres undefined)    > 100 µM
4. COc1ccc2c(c1)[nH]c(=O)c1c3cc(C)c(C)cc3cn21    2.9 µM

Could you tell me TGI for each of these compounds? They are listed below.
1. Cc1c2c(nn1-c1ccc(S(=O)(=O)NC(=S)Nc3ccccc3)cc1)-c1ccccc1CC2
2. Cn1c(=O)c2c(nc(NCCCCl)n2CC(=O)O)n(C)c1=O
3. COc1cc2c3c(n(C)c(=O)c2cc1OC)-c1cc2c(cc1/C3=C\CCCCCN)OCO2
4. COc1ccc(N[C@H](CS(=O)c2ccc(C)cc2)c2ccc(F)cc2)cc1 (some centres undefined)

1: > 50 µM; 2: > 100 µM; 3: > 55.5 µM; 4: > 100 µM

Recorded TGI for COc1ccc(N2C=Nn3c(nc4sc(C)c(C)c4c3=O)C2)cc1 with T-47D breast, please?
> 100 µM

---

Tested on: HS 578T breast
assay-overview: NCI tumour cell line growth inhibition, 48 h; in the data active means GI50 below about 0.43 µM; inactive means the rest
Hi! Could you answer with just one of these? true (1) for active, false (0) for inactive

1) O=C(CSc1nc2ccccc2[nH]1)Nc1ccc(-c2nc3ccccc3s2)c(Cl)c1    false (0)

For this molecule, state the assay outcome: COc1ccc(Cl)cc1Nc1nc(C(F)(F)F)ccc1C(=O)N/N=C/c1c(Cl)cccc1Cl
false (0)

Look up the recorded call for COC(=O)N[C@H]1CCc2c(Br)c(OC)c(OC)c(OC)c2-c2ccc(SC)c(=O)cc21 in this test.
true (1)

---

System: UACC-62 melanoma
assay-overview: NCI tumour cell line growth inhibition, 48 h; in the data active means GI50 below about 0.43 µM; inactive means the rest
Non-standard residues stand in square brackets, D forms with d. Residues, ends and D or L forms follow the SMILES beside them. *: point of attachment. ONb = O=[N+]([O-])c1ccc(CO*)cc1; AllylGly = C=CC[CH](N)C(=O)O; Boc = CC(C)(C)OC(=O)*
Lab note: assign the record to one of label 1 for active, label 0 for inactive

Answered cases to consult:
1. COc1cc(C2CC(c3ccc(C)cc3)=NN2C=O)ccc1Oc1ccnc2cc(Cl)ccc12 (centres undefined)    label 0
2. COc1ccc(-c2nc3sc(C)cn3c2/C=C/C(=O)c2cc(OC)c(OC)c(OC)c2)cc1    label 0
3. CCOC(=O)c1c2c(n3ccc(NC(=O)CCN4CCCC4)cc13)C(=O)c1ncccc1C2=O    label 0

Identify the outcome logged in this assay for the molecule shown: N#Cc1cn(C2OC(CO)C(O)C2O)c2ncnc(N)c12 (centres undefined)
label 1

Give the logged outcome of this assay for the following molecule: C=CCC(NC(=O)OC(C)(C)C)C(=O)NC(CCC(=O)OCc1ccc([N+](=O)[O-])cc1)C(N)=O (centres undefined) (Boc-[AllylGly]-Glu(ONb)-NH2; configuration not given here)
label 0

GET /call?item= N=C1C(c2nc(-c3ccc(Br)cc3)cs2)=C(O)CN1Cc1cccnc1 returns the recorded outcome of this test.
label 0

Identify the outcome logged in this assay for the molecule shown: O=C(CCCCCCSc1nc(-c2ccccc2)cc(-c2ccc(Cl)cc2)n1)NO
label 0

What was the test verdict on COC(=O)N[C@H]1CCc2c(Br)c(OC)c(OC)c(OC)c2-c2ccc(SC)c(=O)cc21 ?
label 1

Tell me the assay call for COc1cc(/C(C#N)=C/c2ccc3c(c2OC)OCO3)cc2c1OCO2 please.
label 1

Hey, just so you know, these numbers are from PubChem BioAssay (NCI).
